Sourced from paper PMC8381248

- Measurement Protocol: Pharmacokinetic study in rat plasma after intravenous and oral administration
- Format: in vivo, Sprague-Dawley (SD) rats
- Cond: male, Sprague-Dawley; rat plasma, IV 5 mg/kg, n = 3; read-out: AUCINF_pred
Value Type: AUC(0-inf) (ng·h/mL)
Give your result in ng·h/mL as a bare value.

Per the record, COc1cc(C2OCC3C(c4ccc(OC5OC(CO)C(O)C(O)C5O)c(OC)c4)OCC23)ccc1OC1OC(CO)C(O)C(O)C1O (single isomer, unassigned; (+)) has AUC(0-inf) of 7470

---

- Measurement Protocol: Kinetic solubility test in PBS
- Assay type: physicochemical
- Cond: phosphate-buffer saline (PBS), aqueous buffer, kinetic from dmso stock; PBS (100 mM, pH 7.4)
Value Type: solubility kinetic

Compound: COC(=O)C1=C(C)NC(C)=C(C(=O)OCCN(C)Cc2ccccc2)C1c1cccc([N+](=O)[O-])c1 (stereo not drawn) [nicardipine, reference compound]
solubility kinetic: 9.94 µg/mL
--
Compound: COc1cc(C2OCC3C(c4ccc(OC5OC(CO)C(O)C(O)C5O)c(OC)c4)OCC23)ccc1OC1OC(CO)C(O)C(O)C1O (single isomer, unassigned; (+))
solubility kinetic: 99.5 µg/mL

Per the record, CC(=O)N1CCN(c2ccc(OCC3COC(Cn4ccnc4)(c4ccc(Cl)cc4Cl)O3)cc2)CC1 (stereo not drawn) [ketoconazole, reference compound] has solubility kinetic of 38.9 µg/mL
